Where these numbers come from: PubChem BioAssay (NCI)

system: NCI-H23 lung; experiment: NCI-60 one-dose screen, 48 h (100 = growth as untreated, 0 = no growth, -100 = all killed); conditions: 10 µM unless noted
This is part of a sample that, as a whole, favours compounds with a hit. Of some 83,000 tested, about 20% had one in any assay.
// NB: equality with 60% counts as not satisfied; only growth strictly below is satisfied

# item smiles, target, category label
measured = [
    ("S=C(c1cccs1)N1CCN(c2cccc(Cl)c2)CC1", "NCI-H23 lung", "not satisfied"),
    ("COc1ccn2c(C(C)=O)cc(C(=O)c3ccc4c(c3)Sc3ccccc3N4)c2c1", "NCI-H23 lung", "satisfied"),
    ("NCCCNc1nc2ccccc2c2c(=O)c3cccc(F)c3sc12", "NCI-H23 lung", "satisfied"),
    ("N#C/C(=C\\c1ccc(F)cc1)n1nc2cccc(F)c2n1", "NCI-H23 lung", "satisfied"),
    ("NCCCNc1nc2ccc(Cl)cc2c2c(=O)c3cc(F)ccc3sc12", "NCI-H23 lung", "not satisfied"),
    ("O=C1COCCN1c1ccc(NCc2cn(C(=O)c3ccc(Cl)cc3)c3ccccc23)cc1", "NCI-H23 lung", "satisfied"),
    ("Cc1ccc(-c2nc(N3CCN(CC(=O)Nc4ccc(Cl)c(C(F)(F)F)c4)CC3)c3ccccc3n2)cc1", "NCI-H23 lung", "not satisfied"),
    ("C=C1C(=O)O[C@H]2[C@H]1CC/C(COC(=O)CSCC(=O)OC/C1=C/CC[C@@]3(C)O[C@H]3[C@H]3OC(=O)C(=C)[C@@H]3CC1)=C\\CC[C@@]1(C)O[C@@H]21", "NCI-H23 lung", "satisfied"),
    ("CN1C(=O)CNC(=O)[C@H](NC(=O)c2nc3ccccc3cc2O)CSSC[C@H]1C(=O)NCCc1nc2ccccc2cc1O", "NCI-H23 lung", "not satisfied"),
]
